Where these numbers come from: the CATMoS acute toxicity set (Mansouri et al. 2021)

method.description: GHS categories as the set defines them, by LD50: 1 up to 5, 2 up to 50, 3 up to 300, 4 up to 2000, 5 above 2000 mg/kg
details: rat; in vivo; po
Measured GHS category accompanies every entry in the list below.

// recorded GHS category for CCOCC1COC(Cn2cncn2)(c2cc3cc(Cl)cc(Cl)c3o2)O1 (stereo not drawn) : 4

// recorded GHS category for CC(C)(C)OOC(C)(C)C : 5

// recorded GHS category for CC(=O)Oc1ccc(C(=C2CCCCC2)c2ccc(OC(C)=O)cc2)cc1 : 5

// recorded GHS category for CC(O)C(C)O (stereo not drawn) : 5

// recorded GHS category for Fc1ccc(N/C(=N/C2CCCCC2)c2ccccc2)cc1 : 5

###

method.description: GHS categories as the set defines them, by LD50: 1 up to 5, 2 up to 50, 3 up to 300, 4 up to 2000, 5 above 2000 mg/kg
details: rat; in vivo; po
measurement.kind: GHS category
Could you respond with only the numeric value?

Examples with answers:
// recorded GHS category for C#C[C@]1(O)CC[C@H]2[C@@H]3CCc4cc(OC)ccc4[C@H]3CC[C@@]21C : 5

// recorded GHS category for CC(=C(CCS(C)=O)SSC(CCS(C)=O)=C(C)N(C=O)Cc1cnc(C)nc1N)N(C=O)Cc1cnc(C)nc1N (stereo not given) : 4

// recorded GHS category for COCc1cnc(C2=NC(C)(C(C)C)C(=O)N2)c(C(=O)O)c1 (stereo not given) : 5

// recorded GHS category for CN(C(=O)COc1nc2ccccc2s1)c1ccccc1 : 5

// recorded GHS category for COC(=O)CCCCCCCCCC[Si](C)(C)Cl : 5

More entries:
// recorded GHS category for CCCc1c(Cc2ccc(-c3ccccc3-c3nn[nH]n3)cc2)c(=O)nc2nc(CO)[nH]n12 : 4

// recorded GHS category for O=C(Nc1cc(Cl)c(NC(=O)c2cc3ccccc3c(N=Nc3cc(C(F)(F)F)ccc3Cl)c2O)cc1Cl)c1cc2ccccc2c(N=Nc2cc(C(F)(F)F)ccc2Cl)c1O : 5

// recorded GHS category for Cc1c(Cl)ccc(O)c1Cl : 5

// recorded GHS category for c1ccc2oc(C3(Cn4cncn4)OCCO3)cc2c1 : 4

// recorded GHS category for CCOP(=S)(OCC)SSSP(=S)(OCC)OCC : 5

###

method.description: rat acute oral toxicity
details: in vivo
measurement.kind: LD50
Remember to follow the number with its unit.

// recorded LD50 for COc1nc(NC(C)C)nc(NC(C)C)n1 : 503 mg/kg

More entries:
// recorded LD50 for C=CC(=O)NC(C)(C)CC(C)=O : 1000 mg/kg

// recorded LD50 for O=C(C=Cc1ccccc1)OCc1ccccc1 : 5380 mg/kg

// recorded LD50 for N#CCO : 8 mg/kg

// recorded LD50 for CN(C)c1nc(=O)n(C2CCCCC2)c(=O)n1C : 1200 mg/kg

// recorded LD50 for CCOP(=S)(OCC)Oc1nc(Cl)c(Cl)cc1Cl : 108 mg/kg

// recorded LD50 for CCCNCCC : 300 mg/kg

// recorded LD50 for ClC(Cl)Br : 916 mg/kg

###

method.description: GHS categories as the set defines them, by LD50: 1 up to 5, 2 up to 50, 3 up to 300, 4 up to 2000, 5 above 2000 mg/kg
details: rat; in vivo; po
measurement.kind: GHS category
Could you respond with only the numeric value?

Examples with answers:
// recorded GHS category for CC(c1ccccc1)C1Nc2cc(Cl)c(S(N)(=O)=O)cc2S(=O)(=O)N1 (configuration not stated) : 5

// recorded GHS category for O=C=Nc1ccc(Br)cc1 : 5

// recorded GHS category for CCO[Si](CCCNC=O)(OCC)OCC : 5

// recorded GHS category for CC(C)(C)OP(=O)(O)OC(C)(C)C : 5

// recorded GHS category for COc1cc(O)c2c(=O)oc(CO)cc2c1 : 4

// recorded GHS category for COc1ccc(CCN(C(=O)CCCSc2nnnn2C)C2CCCCC2)cc1OC : 4

// recorded GHS category for Brc1cc(Oc2cc(Br)c(Br)c(Br)c2Br)c(Br)c(Br)c1Br : 5

// recorded GHS category for OC(c1ccccc1)c1cccnc1Cl (configuration not stated) : 5

More entries:
// recorded GHS category for COC(=O)CBr : 3

// recorded GHS category for O=C1CCCCCN1C(=O)Nc1ccc(Cc2ccc(NC(=O)N3CCCCCC3=O)cc2)cc1 : 5

// recorded GHS category for N#CNC1=NCCS1 : 4

###

method.description: GHS categories as the set defines them, by LD50: 1 up to 5, 2 up to 50, 3 up to 300, 4 up to 2000, 5 above 2000 mg/kg
details: rat; in vivo; po
Measured GHS category accompanies every entry in the list below.
Could you respond with only the numeric value?

Examples with answers:
// recorded GHS category for O=[N+]([O-])c1ccc2c(c1)COP(=S)(NC1CCCCC1)O2 (stereo not drawn) : 3

// recorded GHS category for CC(=O)CC(=O)Nc1ccc(S(=O)(=O)O)cc1 : 5

// recorded GHS category for COc1ccc2cccc(CC#N)c2c1 : 5

// recorded GHS category for Cc1cc(C(C)(C)C)c(OP2COC3(COP(Oc4c(C(C)(C)C)cc(C)cc4C(C)(C)C)OC3)OC2)c(C(C)(C)C)c1 (stereo not drawn) : 5

// recorded GHS category for CC(C)N1C2CCC1CC(=O)C2 : 3

// below: GHS category requested for another molecule
// recorded GHS category for CC(C)OC(=O)C(C)(C)Br : 5

###

method.description: GHS categories as the set defines them, by LD50: 1 up to 5, 2 up to 50, 3 up to 300, 4 up to 2000, 5 above 2000 mg/kg
details: rat; in vivo; po
measurement.kind: GHS category
Could you respond with only the numeric value?

Examples with answers:
// recorded GHS category for CC1=C(/C=C/C(C)=C/C=C/C(C)=C/C=C/C=C(C)/C=C/C=C(C)/C=C/C2=C(C)CCCC2(C)C)C(C)(C)CCC1 : 5

// recorded GHS category for COc1cc(S(=O)(=O)O)c(C)cc1NC(=O)CC(C)=O : 5

// recorded GHS category for Clc1ccc(Cn2ccnc2-c2ccccc2)cc1 : 4

// recorded GHS category for CCCc1nc2ccnn2c(N)c1Cc1ccc(-c2ccccc2-c2nn[nH]n2)cc1 : 4

// below: GHS category requested for another molecule
// recorded GHS category for CC(=O)Nc1ccc(NC(=O)c2cc3ccccc3cc2O)cc1 : 5

###

method.description: GHS categories as the set defines them, by LD50: 1 up to 5, 2 up to 50, 3 up to 300, 4 up to 2000, 5 above 2000 mg/kg
details: rat; in vivo; po
measurement.kind: GHS category
Could you respond with only the numeric value?

Examples with answers:
// recorded GHS category for CCN(CC)CCc1nc(-c2cccc(O)c2)no1 : 5

// recorded GHS category for C[Si](Cl)(Cl)C1CCCCC1 : 5

// recorded GHS category for O=c1c2ccccc2[nH]c2cc3c(=O)c4ccccc4[nH]c3cc12 : 5

More entries:
// recorded GHS category for CCOC(=O)C1(C)OC(=O)N(c2cc(Cl)cc(Cl)c2)C1=O (stereo unspecified) : 5

// recorded GHS category for C=C1c2cccc(O)c2C(=O)C2=C(O)[C@]3(O)C(=O)C(C(N)=O)=C(O)[C@@H](N(C)C)[C@@H]3[C@@H](O)[C@H]12 : 5

// recorded GHS category for CCC1OC(=O)C(C)C(OC2CC(C)(OC)C(O)C(C)O2)C(C)C(OC2OC(C)CC(N(C)C)C2O)C(C)(O)CC(C)C(=O)C(C)C(O)C1(C)O (stereo unspecified) : 5

// recorded GHS category for Cc1cc(OC(=O)c2cc(Cl)ccc2OC(N)=O)ccc1Cl : 5

// recorded GHS category for Nc1ccn([C@@H]2O[C@H](CO)[C@@H](O)[C@@H]2O)c(=O)n1 : 5

// recorded GHS category for CN1C(=O)CCc2ccc(OCCCN3CCC(Cc4ccccc4)CC3)cc21 : 4

// recorded GHS category for C[C@@H]1CN2CC(=O)Nc3ccc(Cl)cc3[C@]2(c2ccccc2)O1 : 5

// recorded GHS category for O=[N+]([O-])c1ccc2c(c1)COP(=S)(N1CCCC1)O2 (stereo unspecified) : 3

###

method.description: GHS categories as the set defines them, by LD50: 1 up to 5, 2 up to 50, 3 up to 300, 4 up to 2000, 5 above 2000 mg/kg
details: rat; in vivo; po
measurement.kind: GHS category
Could you respond with only the numeric value?

Examples with answers:
// recorded GHS category for Nc1ccc(S(=O)(=O)Nc2ncccn2)cc1 : 5

// recorded GHS category for CC(C)=CCC(C#N)(CCN1CCCC1)c1cccc2ccccc12 (stereo unspecified) : 4

// recorded GHS category for C=CCC(C)C : 5

// recorded GHS category for CC1=C(CCC(=O)O)c2cc3[nH]c(cc4nc(cc5[nH]c(cc1n2)c(C)c5C(C)O)C(C)=C4C(C)O)c(C)c3CCC(=O)O (stereo unspecified) : 5

// recorded GHS category for CC(=O)OCCOC(C)C : 4

// below: GHS category requested for another molecule
// recorded GHS category for O=C(O)C1(O)c2ccccc2-c2ccc(Cl)cc21 (stereo unspecified) : 5
